Test System: human S1PR1 (Homo sapiens, UniProt P21453)
Construct: host or cells: CHO-K1
Sequence (P21453 whole entry): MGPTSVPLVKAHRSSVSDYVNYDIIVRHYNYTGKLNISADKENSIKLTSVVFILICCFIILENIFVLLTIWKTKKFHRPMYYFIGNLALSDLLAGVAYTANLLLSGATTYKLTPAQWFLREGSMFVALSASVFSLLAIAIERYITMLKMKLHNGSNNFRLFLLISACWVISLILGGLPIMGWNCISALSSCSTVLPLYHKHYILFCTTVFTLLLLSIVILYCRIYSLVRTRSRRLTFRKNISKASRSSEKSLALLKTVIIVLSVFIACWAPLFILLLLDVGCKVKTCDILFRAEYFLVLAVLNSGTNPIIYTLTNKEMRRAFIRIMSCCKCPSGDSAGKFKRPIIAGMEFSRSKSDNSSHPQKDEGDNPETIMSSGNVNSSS
Assay Overview: Intracellular Ca2+ release (FLIPR) agonist potency, S1P1
Type: cell-based
Run Conditions: recombinant CHO-K1 cells expressing human S1PR1, aequorin, Gq/i5; Calcium 5 FLIPR; read-out: S1P1 EC50
Procedure: Agonistic activity was measured using the method described below. Intracellular Ca^2+ Release Agonist potency and intrinsic activity was assessed by measurement of intracellular Ca^2+ release. […] Phospho-fingolimod was used as positive control. […] Measurements were performed using a fluorometric imaging plate reader FLIPR®tetra (Molecular Devices). […]
// reported EC50 per item

Given Cc1cccc(C#Cc2ccc3c(c2)OCC(N2CC(C(=O)O)C2)C3)c1 (centres unmarked) , state its recorded EC50. > 1000 nM

Given O=C(O)COC1CCc2cc(OCc3cccc(C(F)(F)F)c3)ccc2C1 (centres unmarked) , state its recorded EC50. > 1000 nM

Given O=C(O)C1CN(C2COc3cc(OCc4c(F)cccc4C(F)(F)F)ccc3C2)C1 (centres unmarked) , state its recorded EC50. > 1000 nM

Given O=C(O)COC1CCc2cc(OCc3ccc(C(F)(F)F)cc3)ccc2C1 (centres unmarked) , state its recorded EC50. > 1000 nM

Given O=C(O)C1CN(C2COc3cc(OCc4c(F)cccc4C4CC4)ccc3C2)C1 (centres unmarked) , state its recorded EC50. > 1000 nM

Given O=C(O)[C@H]1C[C@@H](NC2CCc3cc(OCc4c(Cl)cccc4Cl)ccc3C2)C1 (some centres unmarked) , state its recorded EC50. < 1000 nM

Given CCc1cccc(Cl)c1COc1ccc2c(c1)OCC(NC1(CC(=O)O)CCC1)C2 (centres unmarked) , state its recorded EC50. > 1000 nM

Given CN(CC(=O)O)C1COc2cc(OCc3ccc(OCc4cccc(F)c4F)cc3)ccc2C1 (centres unmarked) , state its recorded EC50. < 1000 nM

* * *

// reported EC50 per item
Test System: human S1PR5 (Homo sapiens)
Construct: host or cells: CHO-K1
Assay Overview: Intracellular Ca2+ release (FLIPR) agonist potency, S1P5
Assay type: cell-based
Run Conditions: recombinant CHO-K1 cells expressing human S1PR5, aequorin, Gq/i5; Calcium 5 FLIPR; read-out: S1P5 EC50 range

| Molecule | Test System | EC50 |
| --- | --- | --- |
| O=C(O)CCOC1CCc2cc(OCc3cccc(F)c3F)ccc2C1 (centres unmarked) | human S1PR5 (Homo sapiens) | 1 to 10 µM |

Given O=C(O)C1CCN(C2CCc3cc(OCc4c(Cl)cccc4Cl)ccc3C2)CC1 (centres unmarked) , state its recorded EC50. < 0.01 µM

Given CCC1(C(=O)O)CN([C@@H]2COc3cc(OCc4c(Cl)cccc4Cl)ccc3C2)C1 , state its recorded EC50. 1 to 10 µM

Given O=C(O)COC1CCc2cc(OCc3cccc(C(F)(F)F)c3)ccc2C1 (centres unmarked) , state its recorded EC50. 0.01 to 0.1 µM

Given CCc1cccc(Cl)c1COc1ccc2c(c1)OCC(NC1(C(=O)O)CCC1)C2 (centres unmarked) , state its recorded EC50. 0.01 to 0.1 µM

* * *

Test System: human S1PR4 (Homo sapiens, UniProt O95977)
Construct: host or cells: CHO-K1
Sequence (O95977 whole entry): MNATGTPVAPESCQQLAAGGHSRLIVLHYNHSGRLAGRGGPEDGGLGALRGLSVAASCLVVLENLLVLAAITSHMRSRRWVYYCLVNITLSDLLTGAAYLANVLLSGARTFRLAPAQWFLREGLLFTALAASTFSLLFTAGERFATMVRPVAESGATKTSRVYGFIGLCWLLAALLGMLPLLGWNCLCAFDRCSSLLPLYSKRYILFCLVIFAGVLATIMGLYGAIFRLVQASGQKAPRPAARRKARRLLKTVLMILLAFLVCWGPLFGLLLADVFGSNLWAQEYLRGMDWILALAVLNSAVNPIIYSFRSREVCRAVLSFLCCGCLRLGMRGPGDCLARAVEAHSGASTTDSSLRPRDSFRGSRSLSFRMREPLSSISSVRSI
Assay Overview: Intracellular Ca2+ release (FLIPR) agonist potency, S1P4
Type: cell-based
Run Conditions: recombinant CHO-K1 cells expressing human S1PR4, aequorin, Gq/i5; Calcium 5 FLIPR; read-out: S1P4 EC50
pEC50: −log10 of the molar value.
Assay Endpoint: pEC50

Examples with their reported pEC50 follow.
| Compound | pEC50 |
| --- | --- |
| CN(CCC(=O)O)C1CCc2cc(C#Cc3cc(F)cc(F)c3)ccc2C1 (stereo not drawn) | > 6.00 |
| O=C(O)C1CN(C2COc3cc(Oc4c(Cl)cccc4Cl)ccc3C2)C1 (stereo not drawn) | < 6.00 |
| O=C(O)CCOC1CCc2cc(OCc3ccc(C(F)(F)F)cc3)ccc2C1 (stereo not drawn) | < 6.00 |

Turning now to a further record.
Given O=C(O)CCOC1CCc2cc(OCc3ccc(Cl)cc3)ccc2C1 (stereo not drawn) , state its recorded pEC50. < 6.00

* * *

Test System: human S1PR5 (Homo sapiens, UniProt Q9H228)
Construct: host or cells: CHO-K1
Sequence (Q9H228 whole entry): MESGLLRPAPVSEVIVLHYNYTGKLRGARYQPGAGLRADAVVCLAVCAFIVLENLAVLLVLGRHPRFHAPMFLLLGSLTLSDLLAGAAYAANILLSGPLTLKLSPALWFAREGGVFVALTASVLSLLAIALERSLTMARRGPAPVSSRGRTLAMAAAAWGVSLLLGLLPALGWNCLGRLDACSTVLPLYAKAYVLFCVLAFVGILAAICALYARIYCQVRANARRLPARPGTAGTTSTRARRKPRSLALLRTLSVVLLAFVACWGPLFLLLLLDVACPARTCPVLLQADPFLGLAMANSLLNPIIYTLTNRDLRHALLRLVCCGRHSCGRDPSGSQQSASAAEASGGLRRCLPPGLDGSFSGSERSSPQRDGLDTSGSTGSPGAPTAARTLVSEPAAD
Assay Overview: Intracellular Ca2+ release (FLIPR) agonist potency, S1P5
Format: cell-based
Run Conditions: recombinant CHO-K1 cells expressing human S1PR5, aequorin, Gq/i5; Calcium 5 FLIPR; read-out: S1P5 EC50 range
// reported EC50 per item

| Compound | EC50 |
| --- | --- |
| CCc1cccc(Cl)c1COc1ccc2c(c1)OCC(NC1(CC(=O)O)CCC1)C2 (stereo not drawn) | < 10 nM |
| O=C(O)C1CN(C2COc3cc(OCc4c(Cl)cccc4Cl)c(Br)cc3C2)C1 (stereo not drawn) | 10 to 100 nM |
| O=C(O)C1CN(C2COc3cc(OCc4c(F)cccc4C4CC4)ccc3C2)C1 (stereo not drawn) | < 10 nM |
| O=C(O)C1CN(C2COc3cc(OCc4c(Cl)cccc4C4CC4)ccc3C2)C1 (stereo not drawn) | < 10 nM |
| O=C(O)C1CN(C2COc3cc(OCC4CCCCC4)ccc3C2)C1 (stereo not drawn) | 100 to 1000 nM |

Given O=C(O)CCOC1CCc2cc(OCc3ccc(C(F)(F)F)cc3)ccc2C1 (stereo not drawn) , state its recorded EC50. 1000 to 10000 nM

Given COc1ccc(Cl)cc1COc1ccc2c(c1)CCC(OCC(=O)O)C2 (stereo not drawn) , state its recorded EC50. 1000 to 10000 nM

Given O=C(O)C1CCN(CC2OCCc3cc(OCc4c(Cl)cccc4Cl)ccc32)CC1 (stereo not drawn) , state its recorded EC50. 10 to 100 nM

Given O=C(O)C1CN(C2COc3cc(-c4ccc(OCC5CCCCC5)cc4)ccc3C2)C1 (stereo not drawn) , state its recorded EC50. < 10 nM

* * *

// reported pEC50 per item
Test System: human S1PR5 (Homo sapiens, UniProt Q9H228)
Construct: host or cells: CHO-K1
Assay Overview: Intracellular Ca2+ release (FLIPR) agonist potency, S1P5
Format: cell-based
Run Conditions: recombinant CHO-K1 cells expressing human S1PR5, aequorin, Gq/i5; Calcium 5 FLIPR; read-out: S1P5 EC50 range
pEC50: −log10 of the molar value.

Examples with their reported pEC50 follow.
| Molecule | Assay Endpoint | Result |
| --- | --- | --- |
| O=C(O)COC1CCc2cc(OCc3cc(F)ccc3Cl)ccc2C1 (centres unmarked) [Compound 171] | pEC50 | 5.00 to 6.00 |
| O=C(O)CCNC1CCc2cc(OCc3c(Cl)cccc3C3CC3)ccc2C1 (centres unmarked) [Compound 21] | pEC50 | 5.00 to 6.00 |
| CN(CCC(=O)O)C1CCc2cc(C#Cc3cc(F)cc(F)c3)ccc2C1 (centres unmarked) [Compound 15] | pEC50 | > 8.00 |

Given Cc1cccc(Cl)c1COc1ccc2c(c1)OCC(N1CC(C(=O)O)C1)C2 (centres unmarked) [Compound 71] , state its recorded pEC50. 6.00 to 7.00

Given O=C(O)CCNC1CCc2cc(C#Cc3cc(F)cc(F)c3)ccc2C1 (centres unmarked) [Compound 14] , state its recorded pEC50. > 8.00

* * *

Test System: human S1PR5 (Homo sapiens, UniProt Q9H228)
Construct: host or cells: CHO-K1
Assay Overview: Intracellular Ca2+ release (FLIPR) agonist potency, S1P5
Assay type: cell-based
Run Conditions: recombinant CHO-K1 cells expressing human S1PR5, aequorin, Gq/i5; Calcium 5 FLIPR; read-out: S1P5 EC50 range
Assay Endpoint: EC50

Examples with their reported EC50 follow.
| Compound | EC50 |
| --- | --- |
| O=C(O)C1CN(C2COc3cc(OCC4CCC4)ccc3C2)C1 (stereo not drawn) | 1 to 10 µM |
| O=C(O)COC1CCc2cc(OCc3ccc(Cl)cc3Cl)ccc2C1 (stereo not drawn) | 1 to 10 µM |
| Cc1cccc(C)c1COc1ccc2c(c1)CCC(OCC(=O)O)C2 (stereo not drawn) | 0.01 to 0.1 µM |
| CN(CC(=O)O)C1COc2cc(-c3ccc(OCc4ccccc4)cc3)ccc2C1 (stereo not drawn) | 0.01 to 0.1 µM |
| CCc1cccc(F)c1COc1ccc2c(c1)OC[C@@H](N1CC(C)(C(=O)O)C1)C2 | < 0.01 µM |
| O=C(O)CCOC1CCc2cc(OCc3ccc(Cl)c(Cl)c3)ccc2C1 (stereo not drawn) | 1 to 10 µM |
| O=C(O)C1CN(C2COc3cc(OCCc4ccc(Cl)cc4)ccc3C2)C1 (stereo not drawn) | 1 to 10 µM |
| CCc1cccc(Cl)c1COc1ccc2c(c1)CCC(OCC(=O)O)C2 (single isomer, unassigned) [Compound 240] | 0.01 to 0.1 µM |

Turning now to a further record.
Given O=C(O)CNC1COc2cc(OCc3c(Cl)cccc3Cl)ccc2C1 (stereo not drawn) , state its recorded EC50. 0.1 to 1 µM
